This collection of values is drawn from patent US4835160A.

Experiment: in vivo
Set-up: species or system CDF1 hybrid mice
Conditions: mouse, ip, 100 mg/kg
measured_attribute: survival at 312 h (%)
Kindly answer with a numeric value in %, unit omitted.

*Q* Give its survival at 312 h value. Item: Cc1cnc(NCCCN(C)C)c2c1[nH]c1ccc(O)cc12 [Derivative No. 10]
*A* 100

*Q* Give its survival at 312 h value. Item: CCN(CC)CCCNc1ncc(C)c2[nH]c3ccccc3c12 [Derivative No. 1]
*A* 100

* * *

Test: in vivo
Design: species or system CDF1 hybrid mice
Conditions: mouse, ip, 25 mg/kg
measured_attribute: survival at 312 h (%)
Kindly answer with a numeric value in %, unit omitted.

*Q* Give its survival at 312 h value. Item: Cc1cnc(NCCCN(C)C)c2c3cc(O)ccc3n(C)c12
*A* 100
